- Tested on: Alopecurus myosuroides
- test.description: Pre-emergence herbicidal activity, ALOMY
- Type: in vivo
- condition.parameters: 1000 g/Ha, sprayed pre-emergence, evaluated after 13 days, scale 0-5
The reader will find reported ALOMY damage score, application pre-emergence values listed item by item below.
measurement.label: ALOMY damage score, application pre-emergence

{"molecule": "CN1CC(O)N(c2cc(C(C)(C)C#N)ncn2)C1=O (stereo not drawn) [Example A2]", "assayed.target": "Alopecurus myosuroides", "value": 4}
{"molecule": "CN1C(=O)N(c2cc(C(C)(C)C)ncn2)C(O)C1O (stereo not drawn) [Example A4]", "assayed.target": "Alopecurus myosuroides", "value": 2}
{"molecule": "CC1C(OC(=O)Nc2ccc([N+](=O)[O-])cc2)N(c2cc(C(C)(C)C)ncn2)C(=O)N1C (stereo not drawn) [Example A36]", "assayed.target": "Alopecurus myosuroides", "value": 4}
